Test system: 699152-130-R-J1-PDC complex spheroid growth
Assay: Anticancer human tumor 699152-130-R-J1-PDC patient-derived pancreatic carcinoma cell line growth inhibition [AhR]
Details: curve of first compound; second compound 3.16 µM
# pIC50 per entry
Conceptually, pIC50 converts a concentration in mol/L into minus its log10.

Here is how some compounds turned out for pIC50.
Query block: # input compound: Nc1ccccc1NC(=O)c1ccc(CNC(=O)OCc2cccnc2)cc1 + CC(CO)NC(=O)c1cc(-c2ccc(Cl)cc2)nn(-c2cnn(C)c2)c1=O ; wanted: its pIC50
Result block: 5.12

Query block: Lookup COc1cc(C2c3cc4c(cc3C(OC3OC5COC(C)OC5C(O)C3O)C3COC(=O)C23)OCO4)cc(OC)c1O (stereo not drawn) + Cc1cncc(-c2nc(NCCc3c[nH]c4ccccc34)c3ncn(C(C)C)c3n2)c1
Result block: 5.57

Then there is this compound:
Query block: Field request: pIC50 | item: CC(C)CC(NC(=O)C(Cc1ccccc1)NC(=O)c1cnccn1)B(O)O (stereo not drawn) + Cc1ccccc1N=Nc1ccc(NC(=O)c2ccnn2C)c(C)c1
Result block: 7.82

###

System: 699152-130-R-J1-PDC complex spheroid growth
Assay: Anticancer human tumor 699152-130-R-J1-PDC cell line growth inhibition [AhR];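 further: compound exposure lasted 7 days after spheroids had grown for 3 days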
Conditions: second compound 10 µM; first compound 0.0316 µM; stronger effect = lower value
Lab note: cut-off is 20%. Strictly less in viability, T/C is TRUE. Exactly 20% or more is FALSE.

Query block: # strict comparison: is reported viability, T/C < 20%? input = COc1ccc([C@@H](O)c2cc(-c3ncnc4cc(N5CCOCC5)ccc34)c(F)cc2Cl)nn1 + CC(CO)NC(=O)c1cc(-c2ccc(Cl)cc2)nn(-c2cnn(C)c2)c1=O
Result block: FALSE

Query block: Same for COc1cc(C2c3cc4c(cc3C(OC3OC5COC(C)OC5C(O)C3O)C3COC(=O)C23)OCO4)cc(OC)c1O (stereo unspecified) + Cc1ccccc1N=Nc1ccc(NC(=O)c2ccnn2C)c(C)c1
Result block: FALSE

Query block: And COc1cccc2c1C(=O)c1c(O)c3c(c(O)c1C2=O)CC(O)(C(=O)CO)CC3OC1CC(N)C(O)C(C)O1 (stereo unspecified) + Cc1cncc(-c2nc(NCCc3c[nH]c4ccccc34)c3ncn(C(C)C)c3n2)c1 ?
Result block: TRUE

Query block: Quick one: NS(=O)(=O)OCC1CC(n2ccc3c(NC4CCc5ccccc54)ncnc32)CC1O (stereo unspecified) + Cc1cncc(-c2nc(NCCc3c[nH]c4ccccc34)c3ncn(C(C)C)c3n2)c1
Result block: FALSE

Query block: Then NS(=O)(=O)OCC1CC(n2ccc3c(NC4CCc5ccccc54)ncnc32)CC1O (stereo unspecified) + Cc1ccccc1N=Nc1ccc(NC(=O)c2ccnn2C)c(C)c1 ?
Result block: FALSE

Turning to the following compound.
Query block: Below 20% on viability, T/C? Entry Nc1ccn(C2OC(CO)C(O)C2(F)F)c(=O)n1 (stereo unspecified) + Cc1cncc(-c2nc(NCCc3c[nH]c4ccccc34)c3ncn(C(C)C)c3n2)c1
Result block: FALSE

###

Tested on: 699152-130-R-J1-PDC complex spheroid growth
Test: Anticancer human tumor 699152-130-R-J1-PDC cell line growth inhibition [AhR];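 further: compound exposure lasted 7 days after spheroids had grown for 3 days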
Settings: second compound 0.1 µM; first compound 0.03 µM; stronger effect = lower value
With a cut-off of 60%, any viability, T/C strictly below it is called rule met; any viability, T/C meeting it or above is called rule not met.

Query block: Is viability, T/C of Nc1ncn(C2CC(O)C(CO)S2)c(=O)n1 (configuration not stated) + CC(CO)NC(=O)c1cc(-c2ccc(Cl)cc2)nn(-c2cnn(C)c2)c1=O strictly below 60%?
Result block: rule not met

Query block: Try O=C(C=Cn1cnc(-c2cc(C(F)(F)F)cc(C(F)(F)F)c2)n1)NNc1cnccn1 + Cc1ccccc1N=Nc1ccc(NC(=O)c2ccnn2C)c(C)c1 next.
Result block: rule not met

New cases:
Query block: Just wondering, is viability, T/C of O=C(C=Cn1cnc(-c2cc(C(F)(F)F)cc(C(F)(F)F)c2)n1)NNc1cnccn1 + Cc1cncc(-c2nc(NCCc3c[nH]c4ccccc34)c3ncn(C(C)C)c3n2)c1 below 60%?
Result block: rule not met

Query block: // same read-out, input: CCc1c2c(nc3ccc(O)cc13)-c1cc3c(c(=O)n1C2)COC(=O)[C@]3(O)CC + Cc1ccccc1N=Nc1ccc(NC(=O)c2ccnn2C)c(C)c1
Result block: rule met

Query block: Param item: Nc1ncn(C2CC(O)C(CO)S2)c(=O)n1 (configuration not stated) + Cc1ccccc1N=Nc1ccc(NC(=O)c2ccnn2C)c(C)c1
Result block: rule not met

Query block: Next record, please: Nc1ncn(C2CC(O)C(CO)S2)c(=O)n1 (configuration not stated) + Cc1cncc(-c2nc(NCCc3c[nH]c4ccccc34)c3ncn(C(C)C)c3n2)c1
Result block: rule not met

Query block: Repeat with CC(C)CC(NC(=O)C(Cc1ccccc1)NC(=O)c1cnccn1)B(O)O (configuration not stated) + CC(CO)NC(=O)c1cc(-c2ccc(Cl)cc2)nn(-c2cnn(C)c2)c1=O
Result block: rule met

Query block: Also check CCc1c2c(nc3ccc(O)cc13)-c1cc3c(c(=O)n1C2)COC(=O)[C@]3(O)CC + Cc1cncc(-c2nc(NCCc3c[nH]c4ccccc34)c3ncn(C(C)C)c3n2)c1
Result block: rule met

Query block: Follow-up item: CCN(c1cc(-c2ccc(CN3CCOCC3)cc2)cc(C(=O)NCc2c(C)cc(C)[nH]c2=O)c1C)C1CCOCC1 + Cc1cncc(-c2nc(NCCc3c[nH]c4ccccc34)c3ncn(C(C)C)c3n2)c1
Result block: rule not met

Query block: What would you report for CCc1c2c(nc3ccc(O)cc13)-c1cc3c(c(=O)n1C2)COC(=O)[C@]3(O)CC + CC(CO)NC(=O)c1cc(-c2ccc(Cl)cc2)nn(-c2cnn(C)c2)c1=O ?
Result block: rule met

Query block: Try the molecule CCN(c1cc(-c2ccc(CN3CCOCC3)cc2)cc(C(=O)NCc2c(C)cc(C)[nH]c2=O)c1C)C1CCOCC1 + CC(CO)NC(=O)c1cc(-c2ccc(Cl)cc2)nn(-c2cnn(C)c2)c1=O
Result block: rule not met

Query block: How about this molecule: CC(C)CC(NC(=O)C(Cc1ccccc1)NC(=O)c1cnccn1)B(O)O (configuration not stated) + Cc1cncc(-c2nc(NCCc3c[nH]c4ccccc34)c3ncn(C(C)C)c3n2)c1
Result block: rule met
